Below, each entry is listed alongside its reported pKd.
Target: T1, rGDH (recombinant glutamate dehydrogenase) (Clostridium difficile, UniProt P27346 SEQ:1-421)
T1 sequence: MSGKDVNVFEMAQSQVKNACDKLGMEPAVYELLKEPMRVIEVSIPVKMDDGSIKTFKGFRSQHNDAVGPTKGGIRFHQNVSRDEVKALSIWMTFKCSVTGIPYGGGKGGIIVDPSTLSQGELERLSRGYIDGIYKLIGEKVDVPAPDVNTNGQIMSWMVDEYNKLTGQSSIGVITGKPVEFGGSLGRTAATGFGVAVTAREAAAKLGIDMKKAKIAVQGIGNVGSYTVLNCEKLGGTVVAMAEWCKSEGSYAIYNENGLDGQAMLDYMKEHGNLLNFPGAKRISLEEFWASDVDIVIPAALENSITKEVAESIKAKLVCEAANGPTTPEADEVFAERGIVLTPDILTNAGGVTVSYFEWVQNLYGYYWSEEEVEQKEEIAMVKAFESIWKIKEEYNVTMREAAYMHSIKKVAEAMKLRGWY
Test: pulldown; […]; PBS pH 7.6, room temperature
Details: tags: C-terminal His6; expressed in E. coli; Pro-Lab Diagnostics
Please report pKd as the negative decimal logarithm of the molar concentration, giving only the number.

{"Binder": "anti-G3 (anti-GDH3) (ssDNA) DNA: CAGGTCCATCGAGTGGTAGGATGCAGCGGACAGTGTGGGACCATCGCTGCGGATGTATGAATCGCACTGCTCCTGAACGTAC", "pKd": 8.25}

Now consider a different binder.
# input Look up pKd: anti-G7 (anti-GDH7) (ssDNA) DNA: CAGGTCCATCGAGTGGTAGGACCCAACCCACGATGCGCAAGAGGAATGCAGCCTACCAGCATCGCACTGCTCCTGAACGTAC
# output 8.34

This collection of values is drawn from patent US20190071714.
